Molecular target: Tyrosine-protein kinase ZAP-70 (Homo sapiens) (UniProt P43403)
Sequence (P43403 whole entry): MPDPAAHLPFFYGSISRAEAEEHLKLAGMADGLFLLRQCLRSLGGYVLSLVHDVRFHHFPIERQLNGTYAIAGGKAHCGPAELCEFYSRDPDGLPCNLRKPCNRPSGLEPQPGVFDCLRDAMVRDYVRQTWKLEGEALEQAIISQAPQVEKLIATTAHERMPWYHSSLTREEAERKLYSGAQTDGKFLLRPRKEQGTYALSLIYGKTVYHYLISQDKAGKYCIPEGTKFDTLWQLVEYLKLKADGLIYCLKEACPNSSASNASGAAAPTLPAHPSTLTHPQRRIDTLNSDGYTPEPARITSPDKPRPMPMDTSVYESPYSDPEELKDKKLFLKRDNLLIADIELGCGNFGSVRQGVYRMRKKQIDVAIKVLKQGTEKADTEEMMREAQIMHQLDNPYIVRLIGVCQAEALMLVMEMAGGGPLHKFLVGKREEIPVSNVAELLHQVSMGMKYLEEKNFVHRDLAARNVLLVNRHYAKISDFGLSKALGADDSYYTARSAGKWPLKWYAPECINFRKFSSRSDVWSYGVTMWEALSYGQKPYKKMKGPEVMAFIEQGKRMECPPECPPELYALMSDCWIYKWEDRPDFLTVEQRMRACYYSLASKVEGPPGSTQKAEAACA
Conditions: at 1 µM
Description: GSK_PKIS: ZAP70 mean inhibition at 1 uM [Nanosyn]
readout-label: inhibition (%)
Give just the numeric value; % need not be written.

// worked examples, inhibition included
1. Fc1ccc(-c2cc(-c3c[nH]nc3-c3ccccn3)ccn2)cc1; 2.35
2. Clc1ccc(-c2nn3ncccc3c2-c2ccnc(Nc3ccccc3)n2)cc1; 0.42
3. CCCN(CCS(C)(=O)=O)Cc1ccc(-c2ccc3ncnc(Nc4ccc(OCc5cccc(F)c5)c(Cl)c4)c3c2)o1; 1.73
4. COc1ccc2[nH]c3c4[nH]c5ccc(OC)cc5c4c4c(c3c2c1)C(=O)NC4=O; 8.6
5. N#Cc1c(NC(=O)CN2CCOCC2)sc2c1CCCC2; -1.02

INPUT: If you can, please state the reported inhibition value of Fc1cccc(COc2ccc(Nc3ncnc4sc(-c5ccco5)cc34)cc2Cl)c1 .
OUTPUT: 2.41

INPUT: If you can, please state the reported inhibition value of COC(=O)Nc1nc2ccc(Oc3ccc(NC(=O)Nc4cccc(Cl)c4)cc3)cc2[nH]1 .
OUTPUT: 2.42

INPUT: If you can, please state the reported inhibition value of CCN(CC)S(=O)(=O)c1ccc(OC)c(Nc2ncc(-c3ccccc3)o2)c1 .
OUTPUT: -0.02

INPUT: If you can, please state the reported inhibition value of Cc1ccc2c(-c3ccnc(Nc4ccccc4)n3)c(-c3ccc(F)cc3)nn2n1 .
OUTPUT: 2.04

INPUT: If you can, please state the reported inhibition value of Nc1nc(-c2cccc(Cl)c2)c(-c2ccc3ncccc3n2)s1 .
OUTPUT: 3.94

INPUT: If you can, please state the reported inhibition value of O=C(Nc1n[nH]c2cc(-c3ccc(F)cc3)ccc12)C1CC1 .
OUTPUT: 3.64

====

Target: Vascular endothelial growth factor receptor 1 (Homo sapiens) (UniProt P17948)
Sequence (P17948 whole entry): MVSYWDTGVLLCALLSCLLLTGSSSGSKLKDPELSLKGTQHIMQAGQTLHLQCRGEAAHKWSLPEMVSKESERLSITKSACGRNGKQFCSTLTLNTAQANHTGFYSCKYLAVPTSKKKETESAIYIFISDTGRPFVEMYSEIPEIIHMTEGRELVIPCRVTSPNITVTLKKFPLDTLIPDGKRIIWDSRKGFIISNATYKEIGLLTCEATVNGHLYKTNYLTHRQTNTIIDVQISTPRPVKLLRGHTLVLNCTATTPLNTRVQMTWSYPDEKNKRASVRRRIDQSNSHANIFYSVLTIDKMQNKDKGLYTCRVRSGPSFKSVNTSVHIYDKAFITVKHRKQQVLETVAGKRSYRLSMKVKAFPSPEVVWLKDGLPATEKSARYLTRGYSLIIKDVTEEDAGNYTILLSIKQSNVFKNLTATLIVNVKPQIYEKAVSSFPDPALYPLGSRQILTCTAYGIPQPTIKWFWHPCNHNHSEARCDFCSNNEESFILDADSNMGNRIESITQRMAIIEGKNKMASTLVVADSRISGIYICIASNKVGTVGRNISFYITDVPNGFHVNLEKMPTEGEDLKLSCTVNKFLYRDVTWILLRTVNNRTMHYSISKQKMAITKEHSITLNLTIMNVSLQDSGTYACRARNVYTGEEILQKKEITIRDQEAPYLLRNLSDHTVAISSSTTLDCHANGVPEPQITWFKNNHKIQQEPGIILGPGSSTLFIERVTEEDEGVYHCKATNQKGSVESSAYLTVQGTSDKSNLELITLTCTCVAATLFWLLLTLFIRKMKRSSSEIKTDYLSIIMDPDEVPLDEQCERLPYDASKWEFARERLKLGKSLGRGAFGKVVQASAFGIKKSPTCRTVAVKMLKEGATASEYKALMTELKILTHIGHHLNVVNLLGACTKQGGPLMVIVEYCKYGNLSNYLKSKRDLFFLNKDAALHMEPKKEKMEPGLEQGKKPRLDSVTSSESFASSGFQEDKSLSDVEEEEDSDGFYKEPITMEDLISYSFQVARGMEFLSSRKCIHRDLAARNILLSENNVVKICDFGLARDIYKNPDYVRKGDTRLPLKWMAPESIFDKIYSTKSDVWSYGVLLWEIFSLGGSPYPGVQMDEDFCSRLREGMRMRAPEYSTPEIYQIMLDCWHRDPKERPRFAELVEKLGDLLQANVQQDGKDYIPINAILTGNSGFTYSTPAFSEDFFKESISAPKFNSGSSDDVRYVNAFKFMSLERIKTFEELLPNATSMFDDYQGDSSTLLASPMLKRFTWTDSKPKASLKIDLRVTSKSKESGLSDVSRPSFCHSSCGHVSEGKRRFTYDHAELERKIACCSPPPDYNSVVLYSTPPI
Conditions: at 1 µM
Description: GSK_PKIS: FLT1 mean inhibition at 1 uM [Nanosyn]
readout-label: inhibition (%)
Give just the numeric value; % need not be written.

1) Cc1cccc2c1NC(=O)/C2=N\Nc1ccc(S(N)(=O)=O)cc1; -0.65

INPUT: Form field: inhibition recorded for Nc1nc(-c2ccc(F)cc2)c(-c2ccc3ncccc3n2)s1 with Vascular endothelial growth factor receptor 1 (Homo sapiens) (UniProt P17948) (enter value)
OUTPUT: 6.56

INPUT: Form field: inhibition recorded for CCOc1ccc2c(-c3ccnc(Nc4cccc(C(F)(F)F)c4)n3)cnn2n1 with Vascular endothelial growth factor receptor 1 (Homo sapiens) (UniProt P17948) (enter value)
OUTPUT: 1.9

INPUT: Form field: inhibition recorded for CCN1CCC(CC(=O)Nc2n[nH]c3nnc(-c4cccc(F)c4F)cc23)CC1 with Vascular endothelial growth factor receptor 1 (Homo sapiens) (UniProt P17948) (enter value)
OUTPUT: -0.57

INPUT: Form field: inhibition recorded for COc1cc2ncn(-c3cc(OCc4ccccc4C(F)(F)F)c(C(=O)N(C)C)s3)c2cc1OC with Vascular endothelial growth factor receptor 1 (Homo sapiens) (UniProt P17948) (enter value)
OUTPUT: 6.59

INPUT: Form field: inhibition recorded for COc1cc(N2CCN(C(C)C)CC2)ccc1Nc1nc(Nc2ccc(F)cc2C(N)=O)c2cc[nH]c2n1 with Vascular endothelial growth factor receptor 1 (Homo sapiens) (UniProt P17948) (enter value)
OUTPUT: 0.61

INPUT: Form field: inhibition recorded for CCCN(CCS(C)(=O)=O)Cc1ccc(-c2ccc3ncnc(Nc4ccc(OCc5cccc(F)c5)c(Cl)c4)c3c2)o1 with Vascular endothelial growth factor receptor 1 (Homo sapiens) (UniProt P17948) (enter value)
OUTPUT: 1.07

INPUT: Form field: inhibition recorded for Cc1cccc(Nc2ncc(-c3ccccc3)o2)c1 with Vascular endothelial growth factor receptor 1 (Homo sapiens) (UniProt P17948) (enter value)
OUTPUT: 11

All figures here come from ChEMBL document CHEMBL1961873.
